Quick list: protein stability index per entry.
# run.description: protein stability index of a GFP-peptide fusion (GPS, HEK-293T) (PSI 1-6); higher = more stable;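 further: 24-mer peptide tiles fused after GFP, lentivirally expressed, FACS-sorted into six equal bins by GFP/DsRed ratio, decoded by Illumina sequencing, PSI is the read-weighted mean bin number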
# test.parameters: treatment: DMSO; c terminus: a fixed tail appended
assay.metric: protein stability index

>  <sequence.code>
LQEKSQCALEEYVRSQYPNQPTRF [NR2F2]

>  <numeric.readout>
3.16

$$$$
>  <sequence.code>
AVIQHRPSRQYATLDVYNPFETRE [SCAMP3]

>  <numeric.readout>
3.42

$$$$
>  <sequence.code>
VFRWLAYSYASTHRLMTDARRRVC [CPXM2]

>  <numeric.readout>
2.35

$$$$
>  <sequence.code>
EVFEGREDSILGDPKKLLTQHFVQ [MAGEA3]

>  <numeric.readout>
3.42

$$$$
>  <sequence.code>
DERRRLLEQKTQESQKKKQQDDSD [ZNF207]

>  <numeric.readout>
5.54

$$$$
>  <sequence.code>
HAGTVYGGVMYISGGITHDTFQKE [KLHL13]

>  <numeric.readout>
2.32

$$$$
>  <sequence.code>
VSLAVTLHRLKFLGFARRNWGNGK [GDAP1]

>  <numeric.readout>
2.38

$$$$

###

# run.description: protein stability index of a GFP-peptide fusion (GPS, HEK-293T) (PSI 1-6); higher = more stable
# test.parameters: treatment: MLN4924 1 uM, 8 h; c terminus: a fixed tail appended
# cutoff 3 applies to protein stability index; >= gives Yes, < gives No

>  <sequence.code>
RRYVASVSLHDRIYVIGGYDGRSR [KLHL12]

>  <label>
No

$$$$
>  <sequence.code>
KSYPSSELRNMCDEHIASEEPAEK [CLCN6]

>  <label>
Yes

$$$$
>  <sequence.code>
VRLGSFRSPRAGAGALLRLPSERL [PRPH]

>  <label>
Yes

$$$$
>  <sequence.code>
FRETEKSRWSEASRAILQRVQAAA [ALKBH7]

>  <label>
Yes

$$$$
>  <sequence.code>
NDPSGSEEADFLSAETGSPRLTMH [IRX6]

>  <label>
Yes

$$$$
>  <sequence.code>
LAYLPFKLEKSIDSYYRLVIHRAL [PCDHGA10]

>  <label>
No

$$$$
>  <sequence.code>
LEGAQAPLAVEEDASSSTSTSSSF [MAGEA10]

>  <label>
Yes

$$$$
>  <sequence.code>
CPHTPEFSVTGGTEEKSSLLMSCL [RPAIN]

>  <label>
Yes

$$$$
>  <sequence.code>
WTNGSGLALCQRYYHRGHVDPAND [MCOLN1]

>  <label>
Yes

$$$$
>  <sequence.code>
FHGWKYMFGLVIPLGVLQAIAMYF [SLC2A12]

>  <label>
No

$$$$

###

Listing: protein stability index of selected sequences
# run.description: protein stability index of a GFP-peptide fusion (GPS, HEK-293T) (PSI 1-6); higher = more stable
# test.parameters: treatment: MLN4924 1 uM, 8 h; c terminus: a fixed tail appended
assay.metric: protein stability index

>  <sequence.code>
PNDEVHPLLGVKGDGKSKKKQAGR [RBBP5]

>  <numeric.readout>
5.2

$$$$
>  <sequence.code>
DGKRCRRKDVCKSTHHGCEHICVN [MATN2]

>  <numeric.readout>
3.92

$$$$
>  <sequence.code>
AMFTGGMKEQDLMCIKLHGVSKVG [KLHL13]

>  <numeric.readout>
2.58

$$$$
>  <sequence.code>
FEDLPLQEPQSPQKLNPGFDLAKG [PLAGL1]

>  <numeric.readout>
4.83

$$$$
>  <sequence.code>
EWVISTGHDKCVSWMCTRSGNMLG [WDFY1]

>  <numeric.readout>
2.01

$$$$
>  <sequence.code>
KQNGRVAKVKGHRSQKHKERIRLL [C18orf25]

>  <numeric.readout>
3.97

$$$$
>  <sequence.code>
PVGLVMEYMETGSLEKLLASEPLP [RIPK4]

>  <numeric.readout>
3.13

$$$$
>  <sequence.code>
PQHQAGSDSLLTGMAFFKMREMFF [CNOT7]

>  <numeric.readout>
2.15

$$$$
>  <sequence.code>
YHMFQREKVEVQLPELFHKIGVGA [KCNAB2]

>  <numeric.readout>
2.39

$$$$
>  <sequence.code>
RSIQGHNDYICPATNQCTIDKNRR [ESR2]

>  <numeric.readout>
4.21

$$$$
>  <sequence.code>
SSEKKRQSSADGSQPPKKKPKTTN [RBBP5]

>  <numeric.readout>
5.28

$$$$
>  <sequence.code>
EDQGGLEAVRQEMRRQEPLPPPPP [WAS]

>  <numeric.readout>
5.42

$$$$
>  <sequence.code>
RKGKDKENGSVSSSETPPPPPPPN [EIF5]

>  <numeric.readout>
5.22

$$$$
>  <sequence.code>
DIKAAFAPFGRISDARVVKDMATG [TIA1]

>  <numeric.readout>
3.18

$$$$
>  <sequence.code>
DSGVQACFNRSREYQLNDSAAYYL [GNAI1]

>  <numeric.readout>
2.75

$$$$
>  <sequence.code>
QLKESKSKIDALSSEKLNLQKDLE [CEP70]

>  <numeric.readout>
5.16

$$$$
>  <sequence.code>
ETIKCVVVGDNAVGKTRLICARAC [RHOBTB1]

>  <numeric.readout>
2.44

$$$$
>  <sequence.code>
EVFEGREDSILGDPKKLLTQHFVQ [MAGEA3]

>  <numeric.readout>
3.29

$$$$
>  <sequence.code>
KTTLGWKYEQAFESSQKYKEGKYI [YPEL3]

>  <numeric.readout>
2.63

$$$$
>  <sequence.code>
SDTRVGAPATGSGTPGPFTKEGGM [CHIT1]

>  <numeric.readout>
4.98

$$$$
>  <sequence.code>
EEENIGCEEKAKKNANRPLLDEIV [ACBD3]

>  <numeric.readout>
5.46

$$$$
>  <sequence.code>
CEALEDSDGRQDSPAGELPKTVQQ [MATN2]

>  <numeric.readout>
5.56

$$$$
>  <sequence.code>
PPPPPGPPPPPGLPSDGDHQVPTT [WASL]

>  <numeric.readout>
5.63

$$$$
>  <sequence.code>
SLVADNCVTLVWRMPDEDSKIDHY [FSD1]

>  <numeric.readout>
2.94

$$$$
>  <sequence.code>
PPPPIDNGDITSFLLSVYAPGSSV [CFHR2]

>  <numeric.readout>
2.65

$$$$
>  <sequence.code>
PSHSDNLLHGLNLLWRKQLFCDVT [KLHL14]

>  <numeric.readout>
2.16

$$$$
>  <sequence.code>
VAREDVRESCPPLGLETLKITDFQ [CPXM2]

>  <numeric.readout>
4.09

$$$$
>  <sequence.code>
QRTAKGKPVLAKDSSNPYPNFNFN [AASDHPPT]

>  <numeric.readout>
3.74

$$$$
>  <sequence.code>
SPHEMLQAVVLCSKKTFQITKQGD [USP39]

>  <numeric.readout>
3.4

$$$$
>  <sequence.code>
LGKITFIRNSRPLVKKVEEDEAGG [UFD1]

>  <numeric.readout>
3.94

$$$$
>  <sequence.code>
VTVKDETATMKDLEAEVKDTTRVE [R3HDM1]

>  <numeric.readout>
5.56

$$$$
>  <sequence.code>
SEVKEELAGQKDELQLSDLLKQGY [PKD2L1]

>  <numeric.readout>
4.92

$$$$
>  <sequence.code>
KVGKLAATAVGGGFFLLQLANHTG [FUNDC2]

>  <numeric.readout>
2.46

$$$$
>  <sequence.code>
KLEESKQLLKNNEKLITWLNKELN [SASS6]

>  <numeric.readout>
1.99

$$$$
>  <sequence.code>
KYRSYEEFKADAQLLLHNTVIFYG [ZMYND11]

>  <numeric.readout>
2.07

$$$$
>  <sequence.code>
GYGGGFSSSSSFGSGFGGGYGGGL [KRT16]

>  <numeric.readout>
2.57

$$$$
>  <sequence.code>
MFSFNMFDHPIPRVFQNRFSTQYR [UFD1]

>  <numeric.readout>
2.22

$$$$
>  <sequence.code>
ISPWNLPLYLLTWKIAPAMAAGNT [ALDH8A1]

>  <numeric.readout>
3.05

$$$$
>  <sequence.code>
SLYLLLVSCPKSEVRAKFKFSLLN [SPOPL]

>  <numeric.readout>
2.49

$$$$
>  <sequence.code>
PNDEHWKALSRKSTSFRVYIMAFD [FBXO33]

>  <numeric.readout>
2.27

$$$$
>  <sequence.code>
LPQTPHLEEDLKEVLRSEAGIELI [MYBL2]

>  <numeric.readout>
4.37

$$$$
>  <sequence.code>
AGEGLPQVYYFGPCGKYNAMVLEL [CSNK1G1]

>  <numeric.readout>
2.65

$$$$
>  <sequence.code>
SLKAICTEIANCSLKVKFFDLERE [PLD5]

>  <numeric.readout>
2.26

$$$$
>  <sequence.code>
TVKTHLTSLKTKFPAEQYYRFHEH [TSN]

>  <numeric.readout>
2.44

$$$$
>  <sequence.code>
QKLNPGFDLAKGNAGKVNLPKELP [PLAGL1]

>  <numeric.readout>
4.15

$$$$
>  <sequence.code>
RGGGAAGAGGGGSGAGGGSGGSGG [KLHDC10]

>  <numeric.readout>
4.89

$$$$
>  <sequence.code>
RQTKKMFCDMDKSLLCLLCSNSQE [TRIM43]

>  <numeric.readout>
2.86

$$$$
>  <sequence.code>
NNKKWILSASKDRTMRLWNIEEID [WDR88]

>  <numeric.readout>
2.86

$$$$
>  <sequence.code>
FNGNYKVDSPKNFNIAGTVVKYRR [ADAMTSL2]

>  <numeric.readout>
3.44

$$$$
>  <sequence.code>
WDPSPRGCFTLPRSEPIRPIDPAA [DVL3]

>  <numeric.readout>
3.77

$$$$
>  <sequence.code>
DTANEIGQVLHFENVKDVPFGFQT [SERPINB5]

>  <numeric.readout>
3.99

$$$$
>  <sequence.code>
TPSEEHMKNKNNVTEFILLGLTQN [OR4A15]

>  <numeric.readout>
3.21

$$$$
>  <sequence.code>
IAAPHAGANVKPRNSTPPSLARNP [ZC2HC1A]

>  <numeric.readout>
4.48

$$$$
